CD3-recruiting activity (CD3-positive proportion, N=3), CD3-stably expressing 293T cells overview
# tgt: CD3 subunits (CD3E, CD3G, CD3D, CD3Z) (human, UniProt P07766 23-207; P09693 23-182; P04234 22-171; P20963 22-164)
# Sequence (P07766 23-207, chain 1 of 4): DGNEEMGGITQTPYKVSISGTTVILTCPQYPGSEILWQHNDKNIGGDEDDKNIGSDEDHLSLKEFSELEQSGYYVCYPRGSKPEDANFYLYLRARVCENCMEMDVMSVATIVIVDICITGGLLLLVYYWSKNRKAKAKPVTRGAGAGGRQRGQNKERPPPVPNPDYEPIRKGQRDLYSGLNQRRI
# Sequence (P09693 23-182, chain 2 of 4): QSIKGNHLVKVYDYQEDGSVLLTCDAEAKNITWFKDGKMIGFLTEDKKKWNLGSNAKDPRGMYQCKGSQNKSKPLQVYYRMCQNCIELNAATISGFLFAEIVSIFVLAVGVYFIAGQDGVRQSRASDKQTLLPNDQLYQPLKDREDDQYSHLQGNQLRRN
# Sequence (P04234 22-171, chain 3 of 4): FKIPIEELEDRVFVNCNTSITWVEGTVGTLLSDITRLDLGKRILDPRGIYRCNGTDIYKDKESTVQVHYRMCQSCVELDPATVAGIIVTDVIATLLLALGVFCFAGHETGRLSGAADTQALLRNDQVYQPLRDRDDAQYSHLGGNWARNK
# Sequence (P20963 22-164, chain 4 of 4): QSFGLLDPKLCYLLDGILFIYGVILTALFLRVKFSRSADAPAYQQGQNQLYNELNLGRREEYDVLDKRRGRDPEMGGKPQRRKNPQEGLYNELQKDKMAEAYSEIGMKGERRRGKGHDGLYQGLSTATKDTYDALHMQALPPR
# run description: cell-based or functional assay

Solved cases (5 shown):
binder: modified TCR consisting of β12 and α3 (TCR) TCR alpha: NVSQSKDSDVYITDKTVLDMRSMDFKSNSAVAWSNKSDFACANAFNNSIIPEDTFFPSPESSCDVKLVEKSFETDTNLNFQNLSVIGFRILLLKVAGFNLLMTLRLWSS TCR beta: AKPVTQIVSAEAWGRADCGFTSESYQQGVLSATILYEILLGKATLYAVLVSALVLMAMVKRKDSRG
recorded value: ≥ 20%
--
binder: modified TCR consisting of β10 and α7 (TCR) TCR alpha: SNKSDFACANAFNNSIIPEDTFFPSPESSCDVKLVEKSFETDTNLNFQNLSVIGFRILLLKVAGFNLLMTLRLWSS TCR beta: YGLSENDEWTQDRAKPVTQIVSAEAWGRADCGFTSESYQQGVLSATILYEILLGKATLYAVLVSALVLMAMVKRKDSRG
recorded value: ≥ 20%
--
binder: modified TCR consisting of β12 and α7 (TCR) TCR alpha: SNKSDFACANAFNNSIIPEDTFFPSPESSCDVKLVEKSFETDTNLNFQNLSVIGFRILLLKVAGFNLLMTLRLWSS TCR beta: AKPVTQIVSAEAWGRADCGFTSESYQQGVLSATILYEILLGKATLYAVLVSALVLMAMVKRKDSRG
recorded value: ≥ 20%
--
binder: modified TCR consisting of β12 and α6 (TCR) TCR alpha: KSNSAVAWSNKSDFACANAFNNSIIPEDTFFPSPESSCDVKLVEKSFETDTNLNFQNLSVIGFRILLLKVAGFNLLMTLRLWSS TCR beta: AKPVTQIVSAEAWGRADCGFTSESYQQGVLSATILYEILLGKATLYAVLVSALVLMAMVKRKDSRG
recorded value: ≥ 20%
--
binder: modified TCR of the combination of βCR and α1 (TCR) TCR alpha: YQLRDSKSSDKSVCLFTDFDSQTNVSQSKDSDVYITDKTVLDMRSMDFKSNSAVAWSNKSDFACANAFNNSIIPEDTFFPSPESSCDVKLVEKSFETDTNLNFQNLSVIGFRILLLKVAGFNLLMTLRLWSS TCR beta: EDLKNVFPPEVAVFEPSEAEISHTQKATLVCLATGFYPDHVELSWWVNGKEVHSGVSTDPQPLKEQPALNDSRYCLSSRLRVSATFWQNPRNHFRCQVQFYGLSENDEWTQDRAKPVTQIVSAEAWGRADCGFTSESYQQGVLSATILYEILLGKATLYAVLVSALVLMAMVKRKDSRG
recorded value: ≥ 80%

Ask: For the binder shown here, modified TCR consisting of β11 and α4 (TCR) TCR alpha: DVYITDKTVLDMRSMDFKSNSAVAWSNKSDFACANAFNNSIIPEDTFFPSPESSCDVKLVEKSFETDTNLNFQNLSVIGFRILLLKVAGFNLLMTLRLWSS TCR beta: EWTQDRAKPVTQIVSAEAWGRADCGFTSESYQQGVLSATILYEILLGKATLYAVLVSALVLMAMVKRKDSRG , give the reported CD3-recruiting activity (CD3-positive proportion, N=3), CD3-stably expressing 293T cells.
Result: ≥ 20%

Ask: For the binder shown here, modified TCR consisting of β10 and α8 (TCR) TCR alpha: CANAFNNSIIPEDTFFPSPESSCDVKLVEKSFETDTNLNFQNLSVIGFRILLLKVAGFNLLMTLRLWSS TCR beta: YGLSENDEWTQDRAKPVTQIVSAEAWGRADCGFTSESYQQGVLSATILYEILLGKATLYAVLVSALVLMAMVKRKDSRG , give the reported CD3-recruiting activity (CD3-positive proportion, N=3), CD3-stably expressing 293T cells.
Result: ≥ 20%

Ask: For the binder shown here, modified TCR consisting of β11 and α6 (TCR) TCR alpha: KSNSAVAWSNKSDFACANAFNNSIIPEDTFFPSPESSCDVKLVEKSFETDTNLNFQNLSVIGFRILLLKVAGFNLLMTLRLWSS TCR beta: EWTQDRAKPVTQIVSAEAWGRADCGFTSESYQQGVLSATILYEILLGKATLYAVLVSALVLMAMVKRKDSRG , give the reported CD3-recruiting activity (CD3-positive proportion, N=3), CD3-stably expressing 293T cells.
Result: ≥ 20%

Ask: For the binder shown here, modified TCR consisting of β12 and α10 (TCR) TCR alpha: IPEDTFFPSPESSCDVKLVEKSFETDTNLNFQNLSVIGFRILLLKVAGFNLLMTLRLWSS TCR beta: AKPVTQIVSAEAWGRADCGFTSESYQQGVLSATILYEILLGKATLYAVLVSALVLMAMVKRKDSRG , give the reported CD3-recruiting activity (CD3-positive proportion, N=3), CD3-stably expressing 293T cells.
Result: ≥ 20%

Ask: For the binder shown here, modified TCR consisting of β2 and α5 (TCR) TCR alpha: LDMRSMDFKSNSAVAWSNKSDFACANAFNNSIIPEDTFFPSPESSCDVKLVEKSFETDTNLNFQNLSVIGFRILLLKVAGFNLLMTLRLWSS TCR beta: ATLVCLATGFYPDHVELSWWVNGKEVHSGVSTDPQPLKEQPALNDSRYCLSSRLRVSATFWQNPRNHFRCQVQFYGLSENDEWTQDRAKPVTQIVSAEAWGRADCGFTSESYQQGVLSATILYEILLGKATLYAVLVSALVLMAMVKRKDSRG , give the reported CD3-recruiting activity (CD3-positive proportion, N=3), CD3-stably expressing 293T cells.
Result: ≥ 20%

Ask: For the binder shown here, modified TCR consisting of β10 and α6 (TCR) TCR alpha: KSNSAVAWSNKSDFACANAFNNSIIPEDTFFPSPESSCDVKLVEKSFETDTNLNFQNLSVIGFRILLLKVAGFNLLMTLRLWSS TCR beta: YGLSENDEWTQDRAKPVTQIVSAEAWGRADCGFTSESYQQGVLSATILYEILLGKATLYAVLVSALVLMAMVKRKDSRG , give the reported CD3-recruiting activity (CD3-positive proportion, N=3), CD3-stably expressing 293T cells.
Result: ≥ 20%

Ask: For the binder shown here, modified TCR of the combination of βCR and α8 (TCR) TCR alpha: CANAFNNSIIPEDTFFPSPESSCDVKLVEKSFETDTNLNFQNLSVIGFRILLLKVAGFNLLMTLRLWSS TCR beta: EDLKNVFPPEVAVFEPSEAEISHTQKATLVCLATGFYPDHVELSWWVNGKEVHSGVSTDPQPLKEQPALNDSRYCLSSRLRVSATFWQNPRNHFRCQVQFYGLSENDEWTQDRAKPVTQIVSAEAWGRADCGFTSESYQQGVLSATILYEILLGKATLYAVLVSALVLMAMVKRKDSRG , give the reported CD3-recruiting activity (CD3-positive proportion, N=3), CD3-stably expressing 293T cells.
Result: ≥ 80%
